B1: ATL3 (parent)
chain: FSFRYQQELEEEIKELYENFCKHN

Variants of: B1
Test: protein stability index of a GFP-peptide fusion (GPS, HEK-293T) (PSI 1-6); higher = more stable;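 further: lentivirally expressed fusions sorted by FACS into six bins by GFP to DsRed ratio, PSI derived from sequencing read proportions per bin multiplied by bin number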
Conditions: c terminus: a fixed tail appended
protein stability index of 2 or higher: criterion met. Under 2: criterion not met.

I13T    criterion met
E18S    criterion not met
Y5K    criterion met
Q7V    criterion met
L16A    criterion met

Query block: Item `Q6F` with protein stability index of 2 or above?
Result block: criterion met

Query block: Item `Q6A` with protein stability index of 2 or above?
Result block: criterion met

Query block: Item `S2R` with protein stability index of 2 or above?
Result block: criterion met

Query block: Item `K22M` with protein stability index of 2 or above?
Result block: criterion met

Query block: Item `E12M` with protein stability index of 2 or above?
Result block: criterion not met

Query block: Item `F1D` with protein stability index of 2 or above?
Result block: criterion met

Query block: Item `Q7I` with protein stability index of 2 or above?
Result block: criterion not met

Query block: Item `E8I` with protein stability index of 2 or above?
Result block: criterion not met

Query block: Item `F3V` with protein stability index of 2 or above?
Result block: criterion met

Query block: Item `K22G` with protein stability index of 2 or above?
Result block: criterion met

Query block: Item `E18K` with protein stability index of 2 or above?
Result block: criterion not met

Query block: Item `C21H` with protein stability index of 2 or above?
Result block: criterion met

Query block: Item `I13M` with protein stability index of 2 or above?
Result block: criterion met

Query block: Item `Y17C` with protein stability index of 2 or above?
Result block: criterion met

Query block: Item `Q7P` with protein stability index of 2 or above?
Result block: criterion met

Query block: Item `F3M` with protein stability index of 2 or above?
Result block: criterion met

Query block: Item `H23T` with protein stability index of 2 or above?
Result block: criterion met

Query block: Item `S2G` with protein stability index of 2 or above?
Result block: criterion met

Query block: Item `C21Y` with protein stability index of 2 or above?
Result block: criterion not met

Query block: Item `I13P` with protein stability index of 2 or above?
Result block: criterion met
